Values were extracted from the supplement of paper PMC9170038.

# System: MS2 coat protein
# test summary: apparent KD of MS2 coat protein; designed switch direction (-1 OFF switch, 1 ON switch): -1; higher = weaker reporter binding
# assay conditions: input ligand: microRNA oligo, concentration not stated
Field: apparent KD of MS2 coat protein. Provide a value for each of the sequences that follow.
Field format: number, assumed nM, no unit text.

// fetch MS2 coat protein apparent KD of MS2 coat protein for AUCAGCUCGUGAGGAUAUACAUCACUGCUUCGGCAGUGUAUUAAGAUCACAUGAGGAUCACCCAUGUAGAAGGUACGAGCUGAU [ENG2/2-C3] (Eterna round: R96, puzzle: Exclusion NG 2)
20.8

What do you have for CUGCUCCGUGUAGGAUAUGCGUACAACCAAUAUGCAGAAGGACAUGAGGAUCACCCAUGUAUGUUAUUAUCACGUGAAGCGUCC [Design 21] (Eterna round: R96, puzzle: Exclusion NG 1) ?
16

Moving on to GCACGGUUGCUAGGAUAUCCUUGCGAUUAGCAAGGAGAAGGAGCACAUGAGGAUCACCCAUGUACCUCAAUAAUCCAUCCGUGC [Eli exng1 - 029] (Eterna round: R96, puzzle: Exclusion NG 1)
11

Consider next the sequence UGUAGAGUGGUAGGAUAUCCGUCUGUUUCAGUCGGAGAAGGGCCACAGUCACUGGGUCCUAAUAUCAUGGAGACCUGAUCUACU [pwkr exNG1 F6.14] (Eterna round: R96, puzzle: Exclusion NG 1) in the same way.
288

What do you have for AAGUACCGGUGAGGAUAUUUUUAAUAGAACUUUAUGAUAUACAUGAGGAUCACCCAUGUUACUUUAAAGAAGGCAUCGGAUUAA [Mat - Exclusion NG 2 - Mod of JL - D86] (Eterna round: R96, puzzle: Exclusion NG 2) ?
12.5

Now the same for GACCUAUAGGUAGGAUAUCAUUGCGAUUAGCUAUGAGAAGGACCACAUGAGGAUCACCCAUGUCCUCCAAUUAACCAUAAGGUC [Fiskers ExNg1 - 5] (Eterna round: R96, puzzle: Exclusion NG 1)
34.6

Here is the next sequence: AUAUAGUCAGGAUAUCGAAGUGUGUGUUGGUUUGUAAUUUACGAGAAGGGACAUGAGGAUCACCCAUGUAGGAA [JR_Exclusion4)Sub002] (Eterna round: R96, puzzle: Exclusion 4)
33.8

And the next one, ACAUGAGGAUCACCCAUGUAAUCAUGAUGGCUGAUGUAGAGCUAGGAUAUGAGUGGCUUUCUAUCUCAGAAGGAGCUUGACUGG [Deportation 42 - Jieux - Exclusion NG 3] (Eterna round: R96, puzzle: Exclusion NG 3) ?
25.5

Next sequence: AGUACUAACUCGAAAGUGUUAGUACAAUAAGCUUGUGAAACAUGAGGAUCACCCAUGUCCUCAUAAGCUCGUCUUAU [salish99_TOv2_r3_022] (Eterna round: R96, puzzle: Sensor v3, turn-off variant 2)
430

Follow-up entry: UUGUUGUGUGUAGGAUAUGCGUGUUAUUAUUAUGCAGAAGGACAUGAGGAUCACCCAUGUGUAUUAUUAUUAUAUAUUAUAUAU [Title] (Eterna round: R96, puzzle: Exclusion NG 1)
17.1

Thanks! And GCAGCGUAUGUAGGAUAUCGGUCAGUUUCUGAUCGAGAAGGACAUGAGGAUCACCCAUGUAAAUUACCGUCUUUGACGGGCUGC [JL ENG1 3.68] (Eterna round: R96, puzzle: Exclusion NG 1) ?
14.1

Please do the same for UUUAUUAAUUAAUAUAAUAAGAUCACAUGAGGAUCACCCAUGUAGGAUAUCAGCUCGUUUAGAGCUGAGAAGGACAUAAUUAUA [ExNG3/1-B2] (Eterna round: R96, puzzle: Exclusion NG 3) as well.
33.6

What about ACAUGUCUUGUAGGAUAUAGUUGACAUGAGGAUCACCCAUGUUGAUUCAUGUCUAUGGAAACGGACUAGAAGGACGAGAAUAUG [Ex NG2 #17] (Eterna round: R96, puzzle: Exclusion NG 2) ?
25.3

Okay, and AAAUAACCUCUAGGAUAUGUGUACGUAUAGUGCGCAGAAGGAGACAUGAGGAUCACCCAUGUACACACACAACAAACGACCACC (Eterna round: R96, puzzle: Exclusion NG 1) ?
27.3

Quick one: GCACAUGAGGAUCACCCAUGUCAAUGGGAAUUCCUUCUUCAACAGGAUAUCCGAUGGAGAACGUCGGAGAAGGGUUCGCCAGUA [Eternabot solution 15] (Eterna round: R96, puzzle: Exclusion NG 3)
19.5

UGUUGUUACGUAGGAUAUGAGGAUCACCCAUAGAAGGAUAUCGAAAGAGAAGGUCUGAGGAUUACCCAGAAGGACGGGUUAACA [pwkr exNG2 2xF5 2xFMN.4] (Eterna round: R96, puzzle: Exclusion NG 2) ?
131

And the next one, GCUUUUGGGCAAGGAUAUCCUGCGCUGUUCUGGUUCGUGUCUGUCACAUGAGGAUCACCCAUGUGGGAGAAGGUGCCUGUGGUG [Design 70] (Eterna round: R96, puzzle: Exclusion NG 2) ?
14.7

Further, for UGAUCUAGCGGAGGAUAUACAUGAGGAUCACCCAUGUAGAUAUCAUGACCGUAGUCGUGUAUCGUGUAGAAGGCCGCUAGAUCU [JL ENG2 3.69] (Eterna round: R96, puzzle: Exclusion NG 2) ?
12.7
